Source of measurements: PubChem BioAssay (NCATS)

# procedure.summary: Viability qHTS for spleen associated tyrosine kinase inhibitor (SYKi) naive MV4-11 cells (AID 1963823); also: nearly all actives have a fitted effect of over 40% in size
# measurement.setup: MV4-11 AML viability, CellTiter-Glo luminescence, 72 h; series mostly up to 45 µM
Results filed as inconclusive are left out. Activity calls are given as the source filed them. Calls follow the shape of the dose curve; as a rule, active = well fitted cell-killing curve with a large enough effect; inconclusive = small, poorly fitted or top-dose-only effect, or effect the other way; inactive = no such curve, though single readings can be large or run the other way.
Outcome codes: active, inactive

compound="NC(=O)NCCCC(NC(=O)Cc1ccccc1)C(=O)O (centres undefined)" class_name=inactive
compound=CC(C)=CCc1ccc(Oc2c(O)cc(C)cc2CO)c(C(=O)O)c1O class_name=inactive
compound=CCCCCCCCCCCCCCCCCCCCCCO class_name=inactive
compound=CN(C)C[C@@H]1CCn2cc(c3ccccc32)C2=C(C(=O)NC2=O)c2cn(c3ccccc23)CCO1 class_name=active
compound=CCCCCCCC(=O)[O-].CCCCCCCC(=O)[O-].[Zn+2] class_name=inactive
compound="CC1(CO)CCCC2(C)C1C(OC(=O)c1ccccc1)C=C1C(=O)OCC12O (centres undefined)" class_name=active
compound=COc1cc([C@H]2OC[C@](O)(Cc3ccc(O[C@@H]4O[C@H](CO)[C@@H](O)[C@H](O)[C@H]4O)c(OC)c3)[C@@H]2CO)ccc1O class_name=inactive
compound=CC(C)(C#N)c1ccc(N2C(=O)OCc3cnc4ccc(-c5cnc6ccccc6c5)cc4c32)cc1 class_name=active
compound=C[C@H]1CC[C@@H]2N(C1)C[C@@H]1[C@H]([C@@H](O)[C@H](O)[C@]3(O)[C@H]1C[C@@]14OC5(O)[C@@H](C[C@@H](O)[C@@H]31)[C@]4(C)CC[C@@H]5O)[C@]2(C)O class_name=inactive
